Where do these numbers come from? They come from patent US20250235456A1.

Molecular target: CDK1/Cyclin B1 (Homo sapiens (Human), UniProt P06493)
Sequence (P06493 whole entry): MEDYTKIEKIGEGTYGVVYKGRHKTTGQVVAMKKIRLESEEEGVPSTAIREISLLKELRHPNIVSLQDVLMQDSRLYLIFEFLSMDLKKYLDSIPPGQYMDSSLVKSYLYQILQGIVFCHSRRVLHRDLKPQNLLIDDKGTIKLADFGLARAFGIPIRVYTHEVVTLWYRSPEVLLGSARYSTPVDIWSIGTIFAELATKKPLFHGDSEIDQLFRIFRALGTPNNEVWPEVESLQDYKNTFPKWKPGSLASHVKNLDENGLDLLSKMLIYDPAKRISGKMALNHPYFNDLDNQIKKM
Sequence (P14635 whole entry partner): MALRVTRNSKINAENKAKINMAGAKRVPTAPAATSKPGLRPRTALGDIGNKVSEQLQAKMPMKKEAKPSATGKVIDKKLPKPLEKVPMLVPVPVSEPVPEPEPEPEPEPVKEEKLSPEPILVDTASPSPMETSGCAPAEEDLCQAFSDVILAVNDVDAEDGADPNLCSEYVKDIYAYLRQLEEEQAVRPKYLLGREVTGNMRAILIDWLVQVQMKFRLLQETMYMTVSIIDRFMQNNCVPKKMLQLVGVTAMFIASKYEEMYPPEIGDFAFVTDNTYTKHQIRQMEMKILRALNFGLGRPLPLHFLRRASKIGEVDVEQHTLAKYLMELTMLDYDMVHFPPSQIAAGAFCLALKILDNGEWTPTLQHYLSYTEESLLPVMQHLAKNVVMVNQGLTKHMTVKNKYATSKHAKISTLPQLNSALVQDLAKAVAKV
Experiment: CDK1/Cyclin B1 ADP-Glo Kinase Assay

COMPOUND: CS(=O)(=O)N1CC(Nc2ncc3ccnc(N4CCC5(C4)CC5(F)F)c3n2)C1 (centres unmarked) [Compound 14]
IC50: 0.2 to 0.5 µM
//
COMPOUND: Cc1cc2cnc(Nc3ccc(N4CC5(CN(C)C5)C4)cc3)nc2c(N2CCC3(CCOCC3)C2)n1 [Compound 35]
IC50: > 2 µM
//
COMPOUND: Cc1cc2cnc(NC3CCN(S(C)(=O)=O)CC3)nc2c(N2CCC3(CC3)C2)n1 [Compound 54]
IC50: < 0.2 µM
//
COMPOUND: CS(=O)(=O)N1CCC(Nc2ncc3ccnc(N4CCC5(C4)CC(F)(F)C5)c3n2)CC1 [Example 2]
IC50: < 0.2 µM
//
COMPOUND: Cc1cc2cnc(NC3CCN(S(C)(=O)=O)CC3)nc2c(N2CC3(CN(C)C[C@H]3F)C2)n1 [Compound 104]
IC50: 0.5 to 2 µM
//
COMPOUND: Cc1cc2cnc(N[C@H]3CC[C@H](CN(C)C)CC3)nc2c(N2CCC3(C2)CC3(F)F)n1 (some centres unmarked) [Compound 40]
IC50: > 2 µM
//
COMPOUND: CN1C[C@@H]2[C@H](C1)[C@H]2Nc1ncc2ccnc(N3CCC4(CCN(S(C)(=O)=O)C4)C3)c2n1 (some centres unmarked) [Compound 15]
IC50: > 2 µM
//
COMPOUND: CS(=O)(=O)N1CCC(Nc2ncc3ccnc(N4CC5(CCCC5)c5c(F)cccc54)c3n2)CC1 [Compound 19]
IC50: > 2 µM
//
COMPOUND: Cc1cc2cnc(NC3CCN(S(=O)(=O)C4CC4)CC3)nc2c(N2CC3(CCNC3)C2)n1 [Compound 25]
IC50: 0.2 to 0.5 µM
//
COMPOUND: Cc1cc2cnc(NC3CCN(S(C)(=O)=O)CC3)nc2c(C2CC(O)(C(F)F)C2)n1 (centres unmarked) [Compound 93]
IC50: < 0.2 µM
//
COMPOUND: CS(=O)(=O)N1CCC(Nc2ncc3ccnc(N4C[C@H]5c6ccccc6S(=O)(=O)[C@H]5C4)c3n2)CC1 [Compound 16]
IC50: < 0.2 µM
//
COMPOUND: O=S(=O)(CC1CCC1)N1CCC(Nc2ncc3cc(C(F)F)nc(N4CC5(CCNC5)C4)c3n2)CC1 [Compound 55]
IC50: < 0.2 µM
//
COMPOUND: CCN1CC2(C1)CN(c1ccc(Nc3ncc4ccnc(N5CCC6(C5)CC6(F)F)c4n3)nc1)C2 (centres unmarked) [Compound 21]
IC50: > 2 µM
//
COMPOUND: Cc1cc2cnc(NC3CCN(S(C)(=O)=O)CC3)nc2c(N2CC3(CCC(=O)NC3)C2)n1 [Compound 82]
IC50: 0.2 to 0.5 µM
//
COMPOUND: Cc1cc2cnc(Nc3cnn(C4CN(CC#N)C4)c3)nc2c(N2CC3(CN(C)C3)C2)n1 [Compound 31]
IC50: > 2 µM
//
COMPOUND: Cc1cc2cnc(NC3CCN(S(=O)(=O)C4CC4)CC3)nc2c(N2CC(O)(C3CC3)C2)n1 [Compound 56]
IC50: < 0.2 µM
//
COMPOUND: Cc1cc2cnc(Nc3ccc4c(c3)CN(C)C4)nc2c(N2CC3(C2)CN(C2CC2)C3)n1 [Compound 44]
IC50: > 2 µM
//
COMPOUND: CS(=O)(=O)N1CCC(Nc2ncc3cc(C4CC4)nc(N4CC(F)(F)C5(CNC5)C4)c3n2)CC1 [Compound 60]
IC50: < 0.2 µM
//
COMPOUND: CCS(=O)(=O)N1CCC(Nc2ncc3cc(C)nc(N4CC(F)(F)C5(CNC5)C4)c3n2)CC1 [Compound 95]
IC50: < 0.2 µM
//
COMPOUND: [2H]C([2H])([2H])N1CC2(CN(c3nc(C)cc4cnc(NC5CCN(S(C)(=O)=O)CC5)nc34)CC2(F)F)C1 [Example 12]
IC50: < 0.2 µM
//
COMPOUND: Cc1cc2cnc(NC3CCN(S(=O)(=O)c4cnn(C)c4)CC3)nc2c(N2CC(F)(F)C3(CNC3)C2)n1 [Compound 89]
IC50: < 0.2 µM
//
COMPOUND: CN1CCn2nc(Nc3ncc4ccnc(N5CCC6(C5)CC6(F)F)c4n3)cc2C1 (centres unmarked) [Compound 10]
IC50: > 2 µM
//
COMPOUND: CS(=O)(=O)N1CCC(Nc2ncc3ccnc(N4CCC5(CCOCC5)C4)c3n2)CC1 [Compound 7]
IC50: 0.2 to 0.5 µM
//
COMPOUND: Cc1cc2cnc(NC3CCN(S(=O)(=O)C4CC4)CC3)nc2c(N2CC3(CCNCC3(F)F)C2)n1 [Compound 61]
IC50: < 0.2 µM
//
COMPOUND: Cc1cc2cnc(NC3CCN(S(C)(=O)=O)CC3)nc2c(N2CC3(C2)CC(C)(O)C3)n1 [Compound 79]
IC50: 0.2 to 0.5 µM
//
COMPOUND: Cc1cc2cnc(NC3CCN(S(C)(=O)=O)CC3)nc2c(N2CC3(C2)CN(C2CC2)C3)n1 [Compound 42]
IC50: > 2 µM
//
COMPOUND: Cc1cc2cnc(NC3CCN(S(C)(=O)=O)CC3)nc2c(C2CC(O)(C3CC3)C2)n1 (centres unmarked) [Compound 88]
IC50: 0.2 to 0.5 µM
//
COMPOUND: [2H]C([2H])([2H])N1CC2(CN(c3nc(C)cc4cnc(NC5CCN(S(=O)(=O)C6CC6)CC5)nc34)CC2(F)F)C1 [Compound 13]
IC50: < 0.2 µM
//
COMPOUND: CS(=O)(=O)N1CCC(Nc2ncc3ccnc(N4CCC(C#N)(C5CC5)C4)c3n2)CC1 (centres unmarked) [Compound 5]
IC50: < 0.2 µM
